FYI, the data here is from BigSolDB 2.1.

condition_set: in ethanol, 318.15 K
readout: solubility (mole fraction)

structure_smiles	readout	value
O=C(O)CCCCCCCC(=O)O	solubility (mole fraction)	0.15
O=C(O)CCCCCCC(=O)O	solubility (mole fraction)	0.0683
O=C(O)CCCC(=O)O	solubility (mole fraction)	0.322
O=C(O)CCCCCC(=O)O	solubility (mole fraction)	0.204

###

condition_set: in acetone, 298.15 K
Below: a set of entries, each annotated with reported solubility (mole fraction).

structure_smiles	solubility (mole fraction)
O=C(O)CCCCCCCC(=O)O	0.04
O=C(O)CCCCCC(=O)O	0.118
O=C(O)CCCC(=O)O	0.237
O=C(O)CCCCCCC(=O)O	0.0167

###

Below: a set of entries, each annotated with reported solubility (mole fraction).
condition_set: in acetic acid, 323.15 K
readout: solubility (mole fraction)

structure_smiles	value
O=C(O)CCCCCCCC(=O)O	0.133
O=C(O)CCCCCCC(=O)O	0.0501
O=C(O)CCCC(=O)O	0.385
O=C(O)CCCCCC(=O)O	0.232

###

condition_set: in ethanol, 298.15 K
Below: a set of entries, each annotated with reported solubility (mole fraction).

structure_smiles	solubility (mole fraction)
O=C(O)CCCCCCC(=O)O	0.031
O=C(O)CCCC(=O)O	0.176
O=C(O)CCCCCC(=O)O	0.104
O=C(O)CCCCCCCC(=O)O	0.0707

###

Below: a set of entries, each annotated with reported solubility (mole fraction).
condition_set: in acetone, 308.15 K

structure_smiles	solubility (mole fraction)
O=C(O)CCCCCC(=O)O	0.174
O=C(O)CCCCCCC(=O)O	0.025
O=C(O)CCCC(=O)O	0.329
O=C(O)CCCCCCCC(=O)O	0.0634

###

condition_set: in acetic acid, 303.15 K

structure_smiles	solubility (mole fraction)
O=C(O)CCCC(=O)O	0.241
O=C(O)CCCCCC(=O)O	0.119
O=C(O)CCCCCCCC(=O)O	0.0631
O=C(O)CCCCCCC(=O)O	0.0216

###

Below: a set of entries, each annotated with reported solubility (mole fraction).
condition_set: in acetone, 293.15 K

structure_smiles	solubility (mole fraction)
O=C(O)CCCC(=O)O	0.207
O=C(O)CCCCCC(=O)O	0.0752
O=C(O)CCCCCCCC(=O)O	0.0331
O=C(O)CCCCCCC(=O)O	0.0127

###

condition_set: in acetone, 318.15 K
Below: a set of entries, each annotated with reported solubility (mole fraction).

structure_smiles	solubility (mole fraction)
O=C(O)CCCC(=O)O	0.375
O=C(O)CCCCCC(=O)O	0.224
O=C(O)CCCCCCCC(=O)O	0.103
O=C(O)CCCCCCC(=O)O	0.0356

###

condition_set: in acetic acid, 293.15 K
readout: solubility (mole fraction)

structure_smiles	value
O=C(O)CCCCCC(=O)O	0.0794
O=C(O)CCCCCCCC(=O)O	0.04
O=C(O)CCCC(=O)O	0.196
O=C(O)CCCCCCC(=O)O	0.0145

###

condition_set: in ethyl acetate, 293.15 K

structure_smiles	solubility (mole fraction)
O=C(O)CCCCCCCC(=O)O	0.0113
O=C(O)CCCCCC(=O)O	0.0321
O=C(O)CCCCCCC(=O)O	0.00302
O=C(O)CCCC(=O)O	0.105

###

Below: a set of entries, each annotated with reported solubility (mole fraction).
condition_set: in ethyl acetate, 318.15 K

structure_smiles	solubility (mole fraction)
O=C(O)CCCCCCC(=O)O	0.00978
O=C(O)CCCCCC(=O)O	0.102
O=C(O)CCCC(=O)O	0.227
O=C(O)CCCCCCCC(=O)O	0.0663

###

Below: a set of entries, each annotated with reported solubility (mole fraction).
condition_set: in acetone, 323.15 K

structure_smiles	solubility (mole fraction)
O=C(O)CCCCCCCC(=O)O	0.143
O=C(O)CCCC(=O)O	0.417
O=C(O)CCCCCC(=O)O	0.246
O=C(O)CCCCCCC(=O)O	0.0405

###

condition_set: in acetic acid, 318.15 K
Below: a set of entries, each annotated with reported solubility (mole fraction).

structure_smiles	solubility (mole fraction)
O=C(O)CCCCCCCC(=O)O	0.111
O=C(O)CCCCCC(=O)O	0.199
O=C(O)CCCCCCC(=O)O	0.0405
O=C(O)CCCC(=O)O	0.341
